- test-method-notes: NCI Yeast Anticancer Drug Screen. Data for the cln2 rad14 strain (AID 165);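 further: 0% = growth equal to vehicle treated cultures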
- cond: S. cerevisiae cln2 rad14 strain, at 50.0 µM (retest, dose inferred, filed as 5.0), hits give high values
Compounds without any hit were thinned out: in the full panel of roughly 79,000, 15% have a hit.
Hi there, I'd appreciate the recorded growth inhibition for every entry that follows.
One number for each entry, in %.

compound=COc1ccc(OC)c(NC(=O)CCCC(=O)CC(=O)c2cccnc2)c1 readout_kind="growth inhibition" units_text=% value_measured=55
compound=O=c1[nH]cnc2c1ncn2CCc1ccccc1 readout_kind="growth inhibition" units_text=% value_measured=3
compound="CC(C)(C)c1cc(C(c2cc3c(cc2O)OCO3)N2CCOCC2)cc(C(C)(C)C)c1O (stereo unspecified)" readout_kind="growth inhibition" units_text=% value_measured=96
compound=CC1=C(C(=O)Nc2cccc3ccccc23)C(c2cccc([N+](=O)[O-])c2)C(C(=O)Nc2cccc3ccccc23)=C(C)N1 readout_kind="growth inhibition" units_text=% value_measured=14

Your task in this section: give growth inhibition for each listed record.
1. Cc1ccc(S(=O)(=O)OC(COC(=O)c2ccc([N+](=O)[O-])cc2)C2OC(C)(C)OC2C(SCc2ccccc2)SCc2ccccc2)cc1 (stereo unspecified)
2. CCCCCCCCCCCCSC(=NCC)NCC

8
99

Your task in this section: give growth inhibition for each listed record.
1. CN1CC[N+](C)(Cc2ccc(C[N+]3(C)CC[N+](C)(Cc4ccc(CCl)cc4)CC3)cc2)CC1 (stereo unspecified)
2. O=C(OCc1ccc2c(c1)OCO2)c1ccc(Cl)cc1

[95, -7]

Your task in this section: give growth inhibition for each listed record.
1. COc1cc(NS(=O)(=O)c2ccc(NC(C)c3ccc4cccnc4c3O)cc2)nc(OC)n1 (stereo unspecified)
2. CCO/C=C1N=C(/C=C/c2ccccc2Cl)OC/1=O
3. COc1ccc2nc(NC(=O)Nc3c(Cl)cccc3Cl)sc2c1

1: 78; 2: 81; 3: 98

====

- test-method-notes: NCI Yeast Anticancer Drug Screen. Data for the cln2 rad14 strain (AID 165);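 further: 0% = growth equal to vehicle treated cultures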
- cond: S. cerevisiae cln2 rad14 strain, at 50.0 µM, hits give high values
- Protocol: Growth inhibition of yeast strains with defined genetic alterations is measured as a screen for potential anti-cancer activity. Selected strains with alterations in DNA damage repair or cell cycle control were exposed to compounds and growth inhibition was measured relative to vehicle treated controls. The strain used in this assay is cln2 rad14
Compounds without any hit were thinned out: in the full panel of roughly 79,000, 15% have a hit.
Hi there, I'd appreciate the recorded growth inhibition for every entry that follows.
Answers are plain numbers, in %.

molecule=CCCCN(c1ccccc1)c1ncnc2c1ncn2C readout_kind="growth inhibition" units_text=% value_measured=74.2

Your task in this section: give growth inhibition for each listed record.
1. O=C(O)C1C(Br)(c2ccccc2)C1(Br)c1ccccc1 (stereo not given)
2. O=c1[nH]c2c([N+](=O)[O-])cc(Cl)cc2nc1/C=C(\O)c1ccc(Cl)cc1
3. Nc1ncnc2c1cnn2C1CCCCC1
4. CN(C)C(=S)/N=c1\ssc(=S)n1Cc1ccco1
5. Ic1[nH]c(I)c(I)c1I
6. CC(C)SC(=S)Nc1ccc(Cl)cc1
7. N#CC1C(=O)NC(=O)C(C#N)C1c1c(Cl)cccc1Cl (stereo not given)
8. O=CC(O)C(O)C(O)C(O)C(=O)NCCCCCCCCCCCCNC(=O)C(O)C(O)C(O)C(O)C=O (stereo not given)

83.8
65
36.3
0.45
94.3
96.8
48.1
25.2

Look up growth inhibition for this molecule: CCCCCCCCC1(OCCCS(=O)(=O)O)COc2ccccc2OCCOCCOc2ccccc2OC1
93.6
